Below are molecules with their IC50 as measured on Human synovial fluid phospholipase A2 (HSF-PLA2) (Homo sapiens, UniProt P14555).
Sequence (P14555 21-144): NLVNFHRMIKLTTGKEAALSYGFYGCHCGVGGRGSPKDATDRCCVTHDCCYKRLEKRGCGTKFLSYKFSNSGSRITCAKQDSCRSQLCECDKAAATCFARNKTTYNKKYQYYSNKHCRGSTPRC
Reply numerically in µM, unit not repeated.

Solved entries:
CCCCCCCCCCCCCC#CC(O)c1ccc(C(=O)O)s1 (stereo not drawn) : 18
CCCCCCCCCCCCCC#CC(O)c1ccc(C(=O)O)o1 (stereo not drawn) : 28
CCCCCCCCCCCCCC#CC(=O)c1cccc(C(=O)O)n1 : 2.5
CCCCCCCCCCCCCC#CC(=O)c1cccc(C(=O)O)c1 : 11
CCCCCCCCCCCCCC#CC(=O)c1ccc(C(=O)O)o1 : 34

Then there is this molecule:
Query string: For the molecule "CCCCCCCCCCCCCC#CC(=O)c1ccc(O)c(C(=O)O)c1" , give its reported IC50.
Result string: 33
